Recorded phosphorylation enrichment for the following sequences
# Tested on: c-Src;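 note: 11-residue human phosphosite peptides and single-mutation variants displayed on the E. coli surface, counted by deep sequencing, each peptide's frequency after selection divided by its frequency in the unselected input library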;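 note: frequency after pTyr selection over input frequency; kinase dosed for 20-30% of maximal phosphorylation in three min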
# experiment: phosphorylation enrichment, bacterial display (enrichment ratio); higher = better substrate or ligand; peptides without Tyr show the background

// query So what does the record say about phosphorylation enrichment for VKPENYRRLDI [VHL_Y175] ?
// result 0.324

// query Looking for the measured phosphorylation enrichment of KDQGIYEDFVE [MYL6_Y86_T85I_YF] , can you help?
// result 2.84

// query // phosphorylation enrichment lookup, key: GEFHVYRHLRR [PRKRIP1_Y82]
// result 0.518

// query # get_value(readout='phosphorylation enrichment', item= VEKEKYVSYIS [JMJD1C_Y596_M591V] )
// result 0.5

// query phosphorylation enrichment lookup needed for KLIETYSSKNY [PLP1_Y50_F51S] , thanks.
// result 0.543

// query So what does the record say about phosphorylation enrichment for VTPSEYLEIVR [TMEM130_Y412_E407V] ?
// result 0.44

// query # phosphorylation enrichment lookup, item NRKGKYFNVER [ANAPC4_Y469]
// result 0.487

// query Which phosphorylation enrichment is listed for SFPSFYTSHVQ [NEFL_Y443_YF] ?
// result 0.509
